# assay: antivirals protecting cells from dengue CPE – CPE readout, HTS (AID 540333)
# measurementSetup: Dengue virus CPE inhibition in host cells, at 20 µM
The whole screen tested about 10,000 compounds, of which about 320 (3.2%) were called active. Cut-off read from the data, not from the text of the source: active = CPE inhibition mostly above about 9.1% (no sharp cut-off); inactive = mostly below about 7.2%. The list comes from a sample in which actives are over-represented; it also holds close analogues and randomly drawn compounds.
Outcomes you can answer with include only these: T (active), F (inactive)

Check out these entries, answers already filled in.
>>> df
                                   molecule  category
0  COc1ccc(C(=O)/C(C#N)=N/Nc2ccccc2[N+](=O)[O-])cc1         F
1      Cc1cccc(N2CCN(C(=S)NCc3ccco3)CC2)c1C         F
2         O=C(CCc1ccccc1)NCCSCc1c(F)cccc1Cl         F
3  CCC(=O)NC(c1ccccc1Cl)c1c(O)ccc2ccccc12 (stereo unspecified)         F
4   CS/C(=N\S(=O)(=O)c1cccs1)Nc1cccc(Cl)c1C         F

Continue with the next molecule.
Given CC(C)CC(=O)NC(c1ccccc1Cl)c1c(O)ccc2ccccc12 (stereo unspecified) , state the outcome it received in this test. T

====

# assay: antivirals protecting cells from dengue CPE – CPE readout, HTS (AID 540333)
# measurementSetup: Dengue virus CPE inhibition in host cells, at 20 µM
Hit rate of the full screen: of about 10,000 compounds, about 320 (3.2%) were called active. Cut-off read from the data, not from the text of the source: active = CPE inhibition mostly above about 9.1% (no sharp cut-off); inactive = mostly below about 7.2%. For the sample, actives were picked, then their nearest neighbours and some compounds at random.
Outcomes you can answer with include only these: active, inactive

                                   compound  category
0  CC12CCC(C/C1=N\N=C1\NC(=O)/C(=C\c3ccc(Cl)cc3)S1)C2(C)C (stereo not given)    active
1  CC1(C)C(C=C(Cl)Cl)C1C(=O)N(Cc1ccccc1Cl)C1CCS(=O)(=O)C1 (stereo not given)    active
2  CC12CCC(C(=O)N(c3ccc(Cl)cc3)C1=O)C2(C)C (stereo not given)  inactive
3  CCC(C)Sc1nnc(CNC(=O)C23CC4CC(CC(C4)C2)C3)n1C1CCCCC1 (stereo not given)    active
4  CCSc1nnc(CNC(=O)C23CC4CC(CC(C4)C2)C3)n1C1CCCCC1  inactive
5  C/C(=N\NC(=O)c1cccc(S(=O)(=O)Nc2ccccc2Cl)c1)c1ccco1  inactive

Given `CCOc1ccc(C(=O)Nc2cc(-c3nc4ccccc4[nH]3)ccc2Cl)cc1[N+](=O)[O-]` , state the outcome it received in this test. inactive

Given `Cc1ccc(NC(=O)c2cncc(Br)c2)cc1S(=O)(=O)N(C)C` , state the outcome it received in this test. inactive

Given `CCCCSc1nnc(CNC(=O)C23CC4CC(CC(C4)C2)C3)n1Cc1ccccc1` , state the outcome it received in this test. active

Given `COc1ccc2oc(=O)c(/C(C)=N/Nc3nc(-c4cc(C)ccc4C)cs3)cc2c1` , state the outcome it received in this test. inactive

Given `CCSc1nnc(CNC(=O)C23CC4CC(CC(C4)C2)C3)n1Cc1ccccc1` , state the outcome it received in this test. inactive

Given CC12CCC(C(=O)N3CCCc4ccccc43)(OC1=O)C2(C)C (stereo not given) , state the outcome it received in this test. inactive

====

# assay: antivirals protecting cells from dengue CPE – CPE readout, HTS (AID 540333)
# measurementSetup: Dengue virus CPE inhibition in host cells, at 20 µM
Hit rate of the full screen: of about 10,000 compounds, about 320 (3.2%) were called active. Cut-off read from the data, not from the text of the source: active = CPE inhibition mostly above about 9.1% (no sharp cut-off); inactive = mostly below about 7.2%. The entries come from a sample that favours actives as a whole.
Outcomes you can answer with include only these: y = active, n = inactive

Check out these entries, answers already filled in.
In [3]: df
Out[3]:
                                givensmiles  category
0  Cc1ccc(CN2CCc3c(OCc4ccc(F)cc4)cccc3C2=O)cc1         y
1  O=[N+]([O-])c1cc2oc3c(c2c(C=NCc2ccncc2)c1O)CCCC3         n
2                  Cc1ccc(NC(=S)NCC(C)C)cc1         n

Given `Cc1ccc(C)c(NC(=O)COc2cccc3c2CCN(Cc2ccccc2)C3=O)c1` , state the outcome it received in this test. n

Given `COc1ccc(N2CCN(CC(=O)Nc3sccc3C#N)CC2)cc1` , state the outcome it received in this test. n

Given `CCOC(=O)c1c(C(F)(F)F)cc(-c2ccc(F)cc2)nc1C` , state the outcome it received in this test. n
